The origin of these recorded values is paper PMC12257544.

assay: Experimental pKa; format: physicochemical
observed_property: pKa
Quick one: just the number, no unit, thanks!

Inquiry: Reported pKa for CCOC(=O)c1c(O)nn2ccccc12 : what is it?
Reply text: 5.39

----------
// reported Lifetime for each item listed
assay: Photophysical characterization (absorption, emission, QY, lifetime); format: physicochemical; settings: in ACN
Please respond with the number in ns and leave the unit unwritten.

smiles_str: Oc1nn2ccccc2c1-c1ccc2cc(-c3ccccc3)ccc2n1
observed_property: Lifetime
experimental_value: 2.3

Inquiry: Reported Lifetime for CCOC(=O)c1c(O)nn2c(N(C)C)cccc12 : what is it?
Reply text: 3.7

Inquiry: For COc1nn2ccccc2c1/C=C/c1ccccc1 then?
Reply text: 3.5

Inquiry: For COc1nn2ccccc2c1-c1ccc2ccccc2c1 then?
Reply text: 4.3

Inquiry: For CCOC(=O)c1c(O)nn2ccccc12 then?
Reply text: 7

Inquiry: For COc1nn2ccccc2c1/C=C/c1ccc(S(C)(=O)=O)cc1 then?
Reply text: 3.5

Inquiry: For COc1nn2c(N(C)C)cccc2c1-c1ccc2ncccc2c1 then?
Reply text: 2.7
